This collection of values is drawn from ChEMBL document CHEMBL4831493.

# testMethodNotes: Ratio of drug level in brain to plasma of ICR mouse at 10 mg/kg, po measured after 1 hr by LC/MS/MS analysis
# Format: ADME, organism-based
# conditionDescription: brain and plasma
measurementKind: Kp at 1 h

                                 smilescode  measurementkind  result
0  O=C(Nc1cncc(OCC2CCN(Cc3ccccc3)CC2)c1)c1ccnc(NC(=O)C2CC2)c1        Kp at 1 h   0.306

Could you tell me which Kp at 1 h is on file for O=C(Nc1cncc(OCC2CCN(Cc3ccc(F)cc3)CC2)c1)c1ccnc(NC(=O)C2CC2)c1 ?
0.153

###

Known Kp at 1.5 h of a selection of compounds
# testMethodNotes: Ratio of drug level in brain to plasma of ICR mouse at 10 mg/kg, po measured after 1.5 hrs by LC/MS/MS analysis
# Assay type: ADME, organism-based
# conditionDescription: brain and plasma
Quick one: just the number, no unit, thanks!

Could you tell me which Kp at 1.5 h is on file for O=C(Nc1cncc(OCC2CCN(Cc3ccccc3)CC2)c1)c1ccnc(NC(=O)C2CC2)c1 ?
0.695

Could you tell me which Kp at 1.5 h is on file for O=C(Nc1cncc(OCC2CCN(Cc3ccc(F)cc3)CC2)c1)c1ccnc(NC(=O)C2CC2)c1 ?
0.33

###

# testMethodNotes: Effective permeability of the compound by PAMPA-BBB assay
# Assay type: ADME
# conditionDescription: read-out: Peff
Known Papp of a selection of compounds
Write the answer as a number in ×10⁻⁶ cm/s, unit excluded.

                                 smilescode  measurementkind  recordednumber
0  O=C(Nc1cncc(OCC2CCN(Cc3ccc(F)cc3)CC2)c1)c1ccnc(NC(=O)C2CC2)c1             Papp            10.5

Could you tell me which Papp is on file for O=C(Nc1cncc(OCC2CCN(Cc3ccccc3)CC2)c1)c1ccnc(NC(=O)C2CC2)c1 ?
8.2

###

Known concentration at 1.5 h of a selection of compounds
# testMethodNotes: Drug level in ICR mouse brain at 10 mg/kg, po measured after 1.5 hrs by LC/MS/MS analysis
# Format: ADME, organism-based
# conditionDescription: read-out: Ct
Write the answer as a number in ng/g, unit excluded.

>>> df
                                 smilescode  recordednumber
0  O=C(Nc1cncc(OCC2CCN(Cc3ccccc3)CC2)c1)c1ccnc(NC(=O)C2CC2)c1            43.7

Could you tell me which concentration at 1.5 h is on file for O=C(Nc1cncc(OCC2CCN(Cc3ccc(F)cc3)CC2)c1)c1ccnc(NC(=O)C2CC2)c1 ?
113

###

# testMethodNotes: Drug level in ICR mouse brain at 10 mg/kg, po measured after 1 hr by LC/MS/MS analysis
# Assay type: ADME, organism-based
# conditionDescription: read-out: Ct
measurementKind: concentration at 1 h
The answer consists of two parts: a number and, after it, its unit.

                                 smilescode       measurementkind   result
0  O=C(Nc1cncc(OCC2CCN(Cc3ccc(F)cc3)CC2)c1)c1ccnc(NC(=O)C2CC2)c1  concentration at 1 h  62 ng/g

Could you tell me which concentration at 1 h is on file for O=C(Nc1cncc(OCC2CCN(Cc3ccccc3)CC2)c1)c1ccnc(NC(=O)C2CC2)c1 ?
34.4 ng/g
